Exercise: for every item that follows, state its recorded HDAC6 activity raw data (signal).
Target: HDAC6 (Homo sapiens)
Construct: purchased Reaction Biology Corporation (assay run by the CRO)
Sequence (Q9UBN7 whole entry): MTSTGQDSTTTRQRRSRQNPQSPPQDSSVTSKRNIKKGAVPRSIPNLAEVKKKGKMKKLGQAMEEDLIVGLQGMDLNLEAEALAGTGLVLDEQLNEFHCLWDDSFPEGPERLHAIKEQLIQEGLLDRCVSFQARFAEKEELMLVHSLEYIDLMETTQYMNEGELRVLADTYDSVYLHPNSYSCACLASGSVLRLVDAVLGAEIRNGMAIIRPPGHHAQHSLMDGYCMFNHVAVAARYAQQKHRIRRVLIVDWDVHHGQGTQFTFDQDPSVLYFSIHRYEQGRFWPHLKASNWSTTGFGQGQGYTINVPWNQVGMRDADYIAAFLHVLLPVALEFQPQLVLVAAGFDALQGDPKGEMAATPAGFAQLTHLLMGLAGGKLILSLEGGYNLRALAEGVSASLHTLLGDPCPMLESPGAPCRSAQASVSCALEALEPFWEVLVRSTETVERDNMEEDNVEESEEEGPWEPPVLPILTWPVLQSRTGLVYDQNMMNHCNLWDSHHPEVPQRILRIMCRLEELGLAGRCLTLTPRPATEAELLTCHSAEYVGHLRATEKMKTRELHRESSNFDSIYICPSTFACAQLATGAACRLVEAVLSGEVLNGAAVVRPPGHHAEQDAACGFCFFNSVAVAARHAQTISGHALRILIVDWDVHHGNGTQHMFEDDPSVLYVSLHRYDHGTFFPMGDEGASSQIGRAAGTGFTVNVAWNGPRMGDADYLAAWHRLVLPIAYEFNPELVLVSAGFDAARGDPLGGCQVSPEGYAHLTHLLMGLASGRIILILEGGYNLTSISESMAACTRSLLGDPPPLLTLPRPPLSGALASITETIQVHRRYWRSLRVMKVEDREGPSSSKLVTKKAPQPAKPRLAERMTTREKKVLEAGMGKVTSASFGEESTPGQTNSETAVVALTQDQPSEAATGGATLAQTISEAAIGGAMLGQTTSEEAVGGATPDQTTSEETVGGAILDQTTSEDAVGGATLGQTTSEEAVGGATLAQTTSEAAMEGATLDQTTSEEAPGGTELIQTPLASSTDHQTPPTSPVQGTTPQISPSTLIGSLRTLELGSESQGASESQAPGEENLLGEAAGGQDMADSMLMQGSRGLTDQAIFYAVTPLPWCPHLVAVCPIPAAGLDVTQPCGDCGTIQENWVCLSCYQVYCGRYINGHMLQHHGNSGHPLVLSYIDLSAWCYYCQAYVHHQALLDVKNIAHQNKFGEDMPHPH
Test: HDAC6 inhibition, full IC50 measurement (Reaction Biology; fluorogenic p53 peptide RHKK(Ac)AMC)
Type: biochemical
Details: Conc. 1.00E-05 M, t1
Procedure: The assay was performed using 50 μM fluorogenic peptide from p53 residues 379-382 [RHKK(Ac)AMC] in a base reaction buffer of 50 mM Tris-HCl at pH 8.0, 137 mM NaCl, 2.7 mM KCl, 1 mM MgCl2, and freshly added 1 mg/ml BSA and 1% DMSO. […] Peptide concentrations were calculated based on mass of lyophilized peptide and its molecular weight. […]
Peptide text beside a SMILES is read from it.
Answers are plain numbers.

molecule | studyTarget | observedValue
CCCC[C@H]1NC(=O)[C@H](Cc2ccccc2)NC(=O)[C@H](CCCCCS)NC(=O)[C@@H](CCCNC(=N)N)NC(=O)[C@H](C)NC(=O)[C@@H](CO)NC(=O)[C@@H](C)NC(=O)[C@H](CCCCN)NC1=O [des4.3.1.3, SHA-Phe-dNle-Lys-dAla-dSer-Ala-dArg] (HELM PEPTIDE1{A.[dR].[O=C([C@H](CCCCCS)N[*:1])[*:2]].F.[CCCC[C@@H](N[*:1])C(=O)[*:2]].K.[dA].[dS]}$PEPTIDE1,PEPTIDE1,1:R1-8:R2$$$V2.0) | HDAC6 (Homo sapiens) | -1435

Look up HDAC6 activity raw data (signal) for the entries below, preserving their order.
1. CSCC[C@H]1NC(=O)[C@@H](CO)NC(=O)[C@H](CC(N)=O)NC(=O)[C@H](CC(=O)O)NC(=O)[C@@H]([C@H](C)O)NC(=O)[C@H](Cc2c[nH]c3ccccc23)NC(=O)[C@H](CCCCCS)NC(=O)[C@H](CCCCN)NC(=O)[C@@H](CC(=O)O)NC1=O [des2.1.1, SHA-Trp-dThr-Asp-Asn-dSer-dMet-dAsp-Lys] (HELM PEPTIDE1{D.N.[dS].[dM].[dD].K.[O=C([C@H](CCCCCS)N[*:1])[*:2]].W.[dT]}$PEPTIDE1,PEPTIDE1,1:R1-9:R2$$$V2.0)
2. N=C(N)NCCC[C@@H]1NC(=O)[C@H](Cc2c[nH]c3ccccc23)NC(=O)[C@H](CC(=O)O)NC(=O)[C@@H](CO)NC(=O)[C@H](Cc2c[nH]c3ccccc23)NC(=O)[C@H](CCCCCS)NC(=O)[C@H](CCC(N)=O)NC1=O [des4.1.0, SHA-Trp-dSer-Asp-Trp-Arg-Gln] (HELM PEPTIDE1{D.W.R.Q.[O=C([C@H](CCCCCS)N[*:1])[*:2]].W.[dS]}$PEPTIDE1,PEPTIDE1,1:R1-7:R2$$$V2.0)
3. CCCC[C@H]1NC(=O)[C@H](Cc2ccccc2)NC(=O)[C@H](CCCCCS)NC(=O)[C@@H](CCCNC(=N)N)NC(=O)[C@H](CC(=O)O)NC(=O)[C@@H](CO)NC(=O)[C@@H](C)NC(=O)[C@H](CCCCN)NC1=O [des4.3.1, SHA-Phe-dNle-Lys-dAla-dSer-Asp-dArg] (HELM PEPTIDE1{D.[dR].[O=C([C@H](CCCCCS)N[*:1])[*:2]].F.[CCCC[C@@H](N[*:1])C(=O)[*:2]].K.[dA].[dS]}$PEPTIDE1,PEPTIDE1,1:R1-8:R2$$$V2.0)
4. NCCCC[C@H]1NC(=O)[C@H](CCC(N)=O)NC(=O)[C@H](CCC(=O)O)NC(=O)[C@@H]2CCCN2C(=O)[C@H](CC(N)=O)NC(=O)[C@H](CCCCCS)NC(=O)CNC(=O)[C@H](Cc2c[nH]c3ccccc23)NC1=O [des1.1.1, SHA-Asn-Pro-Glu-Gln-dLys-Trp-Gly] (HELM PEPTIDE1{E.Q.[dK].W.G.[O=C([C@H](CCCCCS)N[*:1])[*:2]].N.P}$PEPTIDE1,PEPTIDE1,1:R1-8:R2$$$V2.0)

A:
1. -77
2. 7877
3. 5754
4. 2105
